List of polymerase ribozyme fitness (log ratio) values.
B1: TPR 5TU (parent)
chain: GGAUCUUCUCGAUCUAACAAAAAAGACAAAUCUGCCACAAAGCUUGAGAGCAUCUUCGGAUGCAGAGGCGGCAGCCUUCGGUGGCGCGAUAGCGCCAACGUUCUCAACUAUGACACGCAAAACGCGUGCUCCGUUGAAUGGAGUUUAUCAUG

variants of: B1; assay: polymerase ribozyme fitness, log enrichment relative to wild type (log ratio); higher = more active; in vitro selection for triplet polymerase activity
This sample holds only a part of the variants without activity.

[
  {
    "mutation_annotation": "G94U A147U",
    "bound_type": "=",
    "polymerase ribozyme fitness (log ratio)": 0.0631
  },
  {
    "mutation_annotation": "C93U A150G",
    "bound_type": "=",
    "polymerase ribozyme fitness (log ratio)": -1.93
  },
  {
    "mutation_annotation": "A41C A49C G81A A97C C103G G124U U134C",
    "bound_type": "≤",
    "polymerase ribozyme fitness (log ratio)": -4.2
  },
  {
    "mutation_annotation": "A52C U111C A121C C123A U145A A150G",
    "bound_type": "=",
    "polymerase ribozyme fitness (log ratio)": -3.02
  },
  {
    "mutation_annotation": "A49C A91U C95A A107U",
    "bound_type": "≤",
    "polymerase ribozyme fitness (log ratio)": -4.2
  },
  {
    "mutation_annotation": "A39U G81A C99U U104C G117A",
    "bound_type": "=",
    "polymerase ribozyme fitness (log ratio)": -3.48
  },
  {
    "mutation_annotation": "C75G C85U C87A A113G",
    "bound_type": "≤",
    "polymerase ribozyme fitness (log ratio)": -4.2
  },
  {
    "mutation_annotation": "A30G A40G C54A C85U G117C",
    "bound_type": "≤",
    "polymerase ribozyme fitness (log ratio)": -4.2
  },
  {
    "mutation_annotation": "U15G A20U C54U C85G G94U U104C",
    "bound_type": "=",
    "polymerase ribozyme fitness (log ratio)": -2.12
  },
  {
    "mutation_annotation": "C54A C69U",
    "bound_type": "=",
    "polymerase ribozyme fitness (log ratio)": -4.12
  },
  {
    "mutation_annotation": "U55A C76U A121C",
    "bound_type": "=",
    "polymerase ribozyme fitness (log ratio)": -0.181
  },
  {
    "mutation_annotation": "G50A C85G C93A C129G",
    "bound_type": "≤",
    "polymerase ribozyme fitness (log ratio)": -4.2
  },
  {
    "mutation_annotation": "U77A G81A A113U U134G",
    "bound_type": "≤",
    "polymerase ribozyme fitness (log ratio)": -4.2
  },
  {
    "mutation_annotation": "A12C C93G A98U",
    "bound_type": "=",
    "polymerase ribozyme fitness (log ratio)": -3.05
  },
  {
    "mutation_annotation": "G88A C105A A147C U151G",
    "bound_type": "≤",
    "polymerase ribozyme fitness (log ratio)": -4.2
  },
  {
    "mutation_annotation": "C32G A49C",
    "bound_type": "≤",
    "polymerase ribozyme fitness (log ratio)": -4.2
  },
  {
    "mutation_annotation": "A41C C95U A119G",
    "bound_type": "=",
    "polymerase ribozyme fitness (log ratio)": -0.978
  },
  {
    "mutation_annotation": "U55C C75G C76U G80A C87G C108U",
    "bound_type": "≤",
    "polymerase ribozyme fitness (log ratio)": -4.2
  },
  {
    "mutation_annotation": "C54A",
    "bound_type": "=",
    "polymerase ribozyme fitness (log ratio)": -1.06
  },
  {
    "mutation_annotation": "A49U C93U",
    "bound_type": "=",
    "polymerase ribozyme fitness (log ratio)": -1.38
  },
  {
    "mutation_annotation": "C85G U139C G143A",
    "bound_type": "≤",
    "polymerase ribozyme fitness (log ratio)": -4.2
  },
  {
    "mutation_annotation": "C76A C129G G136A",
    "bound_type": "=",
    "polymerase ribozyme fitness (log ratio)": -3.95
  },
  {
    "mutation_annotation": "C72G G86C",
    "bound_type": "≤",
    "polymerase ribozyme fitness (log ratio)": -4.2
  },
  {
    "mutation_annotation": "C35U G48A U78C C96G G117C",
    "bound_type": "≤",
    "polymerase ribozyme fitness (log ratio)": -4.2
  },
  {
    "mutation_annotation": "U4A C51G G84A A106U C118A",
    "bound_type": "≤",
    "polymerase ribozyme fitness (log ratio)": -4.2
  },
  {
    "mutation_annotation": "G42C U45A G48U A49C C75U C118G U144C",
    "bound_type": "≤",
    "polymerase ribozyme fitness (log ratio)": -4.2
  },
  {
    "mutation_annotation": "A26C A47C U77C U102C G117C",
    "bound_type": "≤",
    "polymerase ribozyme fitness (log ratio)": -4.2
  },
  {
    "mutation_annotation": "U56G U82A A89G C95U G133C",
    "bound_type": "=",
    "polymerase ribozyme fitness (log ratio)": -3.49
  },
  {
    "mutation_annotation": "G86A A110U A138G",
    "bound_type": "≤",
    "polymerase ribozyme fitness (log ratio)": -4.2
  },
  {
    "mutation_annotation": "C57A A60C C85A",
    "bound_type": "=",
    "polymerase ribozyme fitness (log ratio)": -3.08
  },
  {
    "mutation_annotation": "C76G G88C",
    "bound_type": "≤",
    "polymerase ribozyme fitness (log ratio)": -4.2
  },
  {
    "mutation_annotation": "G58C G80A C95U U127G C149G",
    "bound_type": "≤",
    "polymerase ribozyme fitness (log ratio)": -4.2
  },
  {
    "mutation_annotation": "U61A C87U U102C C103G U130C",
    "bound_type": "≤",
    "polymerase ribozyme fitness (log ratio)": -4.2
  },
  {
    "mutation_annotation": "C57U C76A C93U C116A U151G",
    "bound_type": "≤",
    "polymerase ribozyme fitness (log ratio)": -4.2
  },
  {
    "mutation_annotation": "A52C A110G A150G",
    "bound_type": "=",
    "polymerase ribozyme fitness (log ratio)": -3.86
  },
  {
    "mutation_annotation": "C18G A120C",
    "bound_type": "=",
    "polymerase ribozyme fitness (log ratio)": -1.21
  },
  {
    "mutation_annotation": "A12U C14A C85G U145C",
    "bound_type": "=",
    "polymerase ribozyme fitness (log ratio)": -3.7
  },
  {
    "mutation_annotation": "A3G A20U C27G G42A U56A U77G G86A G117U G133C",
    "bound_type": "≤",
    "polymerase ribozyme fitness (log ratio)": -4.2
  },
  {
    "mutation_annotation": "U82G C125G",
    "bound_type": "=",
    "polymerase ribozyme fitness (log ratio)": -1.76
  },
  {
    "mutation_annotation": "G46A G50A C57U A60G G68A G83A G94U G141C",
    "bound_type": "≤",
    "polymerase ribozyme fitness (log ratio)": -4.2
  },
  {
    "mutation_annotation": "U7G A19U A52U U56A A91G C108A",
    "bound_type": "≤",
    "polymerase ribozyme fitness (log ratio)": -4.2
  },
  {
    "mutation_annotation": "G84A C95A",
    "bound_type": "=",
    "polymerase ribozyme fitness (log ratio)": -0.531
  },
  {
    "mutation_annotation": "A29G C51U G62A G84A U139G",
    "bound_type": "≤",
    "polymerase ribozyme fitness (log ratio)": -4.2
  },
  {
    "mutation_annotation": "U55G C57G C95U C96A C118G",
    "bound_type": "=",
    "polymerase ribozyme fitness (log ratio)": -2.53
  },
  {
    "mutation_annotation": "A26G G48A",
    "bound_type": "≤",
    "polymerase ribozyme fitness (log ratio)": -4.2
  },
  {
    "mutation_annotation": "G71U A120G U146C",
    "bound_type": "=",
    "polymerase ribozyme fitness (log ratio)": -2.36
  }
]
